I'd be grateful if you could share measured z-score 2.1 for these entries.
TARGET UNDER TEST: Bcl-xL (Homo sapiens, UniProt Q07817)
Construct: myc-Bcl-xL SPOT array & FP; made in house
Sequence (Q07817 with tags, fused parts or gaps): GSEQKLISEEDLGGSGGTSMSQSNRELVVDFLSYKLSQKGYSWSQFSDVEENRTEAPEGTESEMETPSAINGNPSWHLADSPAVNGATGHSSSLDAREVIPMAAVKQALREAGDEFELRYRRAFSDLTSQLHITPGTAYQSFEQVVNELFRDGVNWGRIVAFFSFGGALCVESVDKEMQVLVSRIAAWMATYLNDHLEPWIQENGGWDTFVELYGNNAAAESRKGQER
ASSAY TEXT: LUMIER full-length protein interaction
Assay type: binding
RUN CONDITIONS: LUMIER results for Bcl-xL; Z-score relative to Gaussian fit of the data; experiment 2, duplicate 1
// return a plain number; no unit text

GET /value?item= FADD (APGEEDLCAAFNVICDNVGKDWRRLA) &field=z-score 2.1 returns 0.7016

Field z-score 2.1 (entry ZNF295 (ERLKGQLCDVLLIVGDQKFRAHKNVL) ) reads 2.441

WRAP53 (RKDAELLCWDLRQSGYPLWSLGREVT) yielded z-score 2.1 of 1.1339

z-score 2.1 reading for RNF160 (WLKGDILGEKLVNLADCLCNEDLESR) : 2.286

# z-score 2.1 of CYP2A6 (MPYMEAVIHEIQRFGDVIPMSLARRV) = -0.5606

Per the record, SGCA (LFWTPLLVVLLAGLGDTEAQQTTLHP) has z-score 2.1 of 0.3748

// TAP1 (MSILTIASAVLEFVGDGIYNNTMGHV) : z-score 2.1 value = 0.7598

// COL2A1 (VLLTLLVAAVLRCQGQDVQEAGSCVQ) : z-score 2.1 value = 1.61

// z-score 2.1 value for TMEM184C (SDIRDDISEQVRHVGRTVRGHPRKKL) : 0.7398

Short answer for C7orf26 (FDHMVPLVEEINRLADELNPLNASQE) : z-score 2.1 was 0.5393

Given item HEXDC (VLELHPGAQRLHIGCDEVYYLGEGEA) , the value recorded as its z-score 2.1 is -0.04647

* * *

TARGET UNDER TEST: Bcl-w (Homo sapiens, UniProt Q92843, Q133R)
Construct: myc-Bcl-w SPOT array & FP; made in house
Sequence (Q92843 with tags, fused parts or gaps Q133R): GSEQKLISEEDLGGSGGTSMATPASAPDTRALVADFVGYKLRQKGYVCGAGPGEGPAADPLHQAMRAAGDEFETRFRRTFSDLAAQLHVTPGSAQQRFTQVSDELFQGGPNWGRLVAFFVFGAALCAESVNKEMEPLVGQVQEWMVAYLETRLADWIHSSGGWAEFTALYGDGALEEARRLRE
ASSAY TEXT: Fluorescence polarization direct binding
No end group written: not given here.
REPORTED ENDPOINT: Kd (nM)
State the answer as a number, implicitly in nM.

Lab note: measured Kd of RLVQQSKALKELADELQERAQRP-NH2 [TRIM58] was 361

* * *

What z-score 2.2 was measured for each of the following?
TARGET UNDER TEST: Bcl-xL (Homo sapiens, UniProt Q07817)
Construct: myc-Bcl-xL SPOT array & FP; made in house
ASSAY TEXT: LUMIER full-length protein interaction
Type: binding
RUN CONDITIONS: LUMIER results for Bcl-xL; Z-score relative to Gaussian fit of the data; experiment 2, duplicate 2
Give the figure by itself; no unit, no explanation.

Lab book: z-score 2.2 of COL2A1 (VLLTLLVAAVLRCQGQDVQEAGSCVQ) noted as 2.141

Record summary for TMEM214 (SFLSAHCASHLAWFGDSLTSLSQRLQ) : reported z-score 2.2 = 0.228

According to the records, this substance ZNF295 (ERLKGQLCDVLLIVGDQKFRAHKNVL) displays z-score 2.2 of -0.4135

Per the records, this substance ( CYBB (APEEDFFSIHIRIVGDWTEGLFNACG) ) has z-score 2.2 equal to -0.6661

Entry under test: ACN9 (LQLHRVLPPDLKSLGDQYVKDEFRRH) . Its z-score 2.2 was 1.441

The reported z-score 2.2 of the substance FUT8 (KKLKNLEGNELQRHADEFLLDLGHHE) was -0.644

GET /value?item= IPO5 (SEIMHSFAKCIEVMGDGCLNNEHFEE) &field=z-score 2.2 returns 0.6709

According to the records, this substance DPF3 (SCMATVIHNPLKALGDQFYKEAIEHC) displays z-score 2.2 of 0.9401

Lab note: measured z-score 2.2 of SIPA1 (TAGLRPGARLLRVCGQTLPSLRPEAA) was 2.046

// field: z-score 2.2; key: TTC31 (DLSSTFVSLALRKVGDWPLSARREKG) ; value = 0.4568

Briefly, z-score 2.2 measured for SGCA (LFWTPLLVVLLAGLGDTEAQQTTLHP) : 0.07051

For this substance ( GBP6 (NDDTPWIARTLDNLADELTAILSAPA) ), measured z-score 2.2 is -0.5692

Recorded z-score 2.2 (substance CYP2A6 (MPYMEAVIHEIQRFGDVIPMSLARRV) ): -0.592

GET /value?item= TAP1 (MSILTIASAVLEFVGDGIYNNTMGHV) &field=z-score 2.2 returns -0.2

Entry NOL8 (KYDPSKYCHNLKKIGEDFSNTIPISS) ; z-score 2.2 = 3.656

z-score 2.2 for PCNXL2 (LLDFFMVSILFSKLGDLLHKLQFVLT) is 1.005

GET /value?item= PPAT (RLRQLGVAKKFGVLSDNFKGKRIVLV) &field=z-score 2.2 returns -0.4829

Note to self: z-score 2.2 recorded for CASP8 (PFKKMDFSRNLYDIGEQLDSEDLASL) was -0.06353

The measured z-score 2.2 associated with NRN1L (DTIYQGFAECLIRLGDSMGRGGELET) reads 0.03743

Entry under test: FOXI1 (PDKRLTLSQIYQYVADNFPFYNKSKA) . Its z-score 2.2 was 1.501

Briefly, z-score 2.2 measured for EXOC4 (MQTLSELAKSFQDMADRCLLVLHLEV) : -0.5885

Form field z-score 2.2, entry TMEM184C (SDIRDDISEQVRHVGRTVRGHPRKKL) : 0.3954

Value of z-score 2.2 reported for the substance DSN1 (RAKASSLSEELKHFADGLETDGTLQK) is -0.4978

So for RNF160 (WLKGDILGEKLVNLADCLCNEDLESR) , the logged z-score 2.2 turned out to be 3.519

Recorded result, FBXL3 (CHGLRELALNYHLLSDELLLALSSEK) , z-score 2.2: 0.0146

Sample SMPD2 (PYLSKHRADRMRRLGDFLNQESFDLA) ; z-score 2.2 observed: 2.724

* * *

TARGET UNDER TEST: Bcl-xL (Homo sapiens, UniProt Q07817)
Construct: myc-Bcl-xL SPOT array & FP; made in house
ASSAY TEXT: LUMIER full-length protein interaction
Assay type: binding
RUN CONDITIONS: LUMIER results for Bcl-xL; Z-score of the interaction relative to the Gaussian fit of the data; experiment 1, duplicate 2
REPORTED ENDPOINT: z-score 1.2

Entry PRKD3 (IQENVDISTVYQIFADEVLGSGQFGI) — recorded z-score 1.2 = -0.4537

Record CCDC57 (QAGPVSSGLALRKLGDRVQLLNLLVT) , field z-score 1.2: 1.916

The value of z-score 1.2 measured for the substance BAK1 (SSTMGQVGRQLAIIGDDINRRYDSEF) turned out to be 2.921

The value of z-score 1.2 measured for the substance WDR60 (GGRVKLVHSALIQLGDSLSHKGNEFW) turned out to be 0.5337

* * *

TARGET UNDER TEST: Mcl-1 (Homo sapiens, UniProt Q07820)
Construct: myc-Mcl-1 SPOT array & FP; made in house
Sequence (Q07820 with tags, fused parts or gaps): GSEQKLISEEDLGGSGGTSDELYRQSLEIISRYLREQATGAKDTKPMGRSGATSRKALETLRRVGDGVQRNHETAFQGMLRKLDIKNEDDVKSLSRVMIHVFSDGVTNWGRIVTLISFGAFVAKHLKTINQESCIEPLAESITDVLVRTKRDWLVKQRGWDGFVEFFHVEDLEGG
ASSAY TEXT: LUMIER full-length protein interaction
Type: binding
RUN CONDITIONS: LUMIER results for Mcl-1; Z-score relative to Gaussian fit of the data; experiment 2, duplicate 2
REPORTED ENDPOINT: z-score 2.2
// keep it numeric: no unit symbol after the value

Here TMEM184C (SDIRDDISEQVRHVGRTVRGHPRKKL) was tested on Mcl-1 (Homo sapiens, UniProt Q07820), and its z-score 2.2 came to 1.818

// z-score 2.2 (Mcl-1 (Homo sapiens, UniProt Q07820)) for SGCA (LFWTPLLVVLLAGLGDTEAQQTTLHP) = -0.477

Noted z-score 2.2 for TAP1 (MSILTIASAVLEFVGDGIYNNTMGHV) , tested on Mcl-1 (Homo sapiens, UniProt Q07820): -0.2533

Noted z-score 2.2 for CYP2A6 (MPYMEAVIHEIQRFGDVIPMSLARRV) , tested on Mcl-1 (Homo sapiens, UniProt Q07820): -1.0005

Observed z-score 2.2, Mcl-1 (Homo sapiens, UniProt Q07820), ACN9 (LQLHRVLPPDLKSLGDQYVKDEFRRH) : 2.179

Observed z-score 2.2 on Mcl-1 (Homo sapiens, UniProt Q07820), entry NOL8 (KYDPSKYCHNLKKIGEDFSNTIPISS) , equals 1.79

// assay Mcl-1 (Homo sapiens, UniProt Q07820), entry CCDC57 (QAGPVSSGLALRKLGDRVQLLNLLVT) , z-score 2.2 value = 1.811

Measured on Mcl-1 (Homo sapiens, UniProt Q07820), FOXI1 (PDKRLTLSQIYQYVADNFPFYNKSKA) has a documented z-score 2.2 of -0.4966

Record for BAK1 (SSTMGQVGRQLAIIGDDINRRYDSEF) under target or system Mcl-1 (Homo sapiens, UniProt Q07820): z-score 2.2 reported as 6.848

Entry GBP6 (NDDTPWIARTLDNLADELTAILSAPA) , Mcl-1 (Homo sapiens, UniProt Q07820) data, z-score 2.2 value: -1.083

Measured on Mcl-1 (Homo sapiens, UniProt Q07820), NRN1L (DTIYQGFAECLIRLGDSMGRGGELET) has a documented z-score 2.2 of 1.343

Noted z-score 2.2 for C7orf26 (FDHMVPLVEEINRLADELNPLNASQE) , tested on Mcl-1 (Homo sapiens, UniProt Q07820): 1.598

Bench note, Mcl-1 (Homo sapiens, UniProt Q07820): EXOC4 (MQTLSELAKSFQDMADRCLLVLHLEV) , z-score 2.2 reads -1.314

Here PRCP (DDMFEPHSWNLKELSDDCFQQWGVRP) was tested on Mcl-1 (Homo sapiens, UniProt Q07820), and its z-score 2.2 came to 0.9311

The recorded z-score 2.2 with Mcl-1 (Homo sapiens, UniProt Q07820) for TTC31 (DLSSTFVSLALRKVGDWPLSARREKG) was -0.2181

Entry P2RX7 (QCPIFRLGDIFRETGDNFSDVAIQGG) ; assay system Mcl-1 (Homo sapiens, UniProt Q07820); z-score 2.2 recorded at -0.3437

These entries and their values trace back to paper PMC4072508.
